Let's look at some molecules and their measured inhibition.
- systemUnderTest: Replicase polyprotein 1a (Severe acute respiratory syndrome-related coronavirus)
- measurementNotes: Inhibition of SARS-CoV 3CLpro expressed in Escherichia coli BL21 (DE3) at 100 uM by FRET assay in presence of 0.01% Triton X-100

Example results:
* CC(C)(C)NC(=O)C(c1cccnc1)N(C(=O)c1cccc(O)c1)c1ccc(C(C)(C)C)cc1 (stereo not drawn) | > 49%
* CC(C)(C)NC(=O)C(c1cccnc1)N(C(=O)Cc1cnc[nH]1)c1ccc(C(C)(C)C)cc1 (stereo not drawn) | > 49%

Let's switch to this molecule now.
Output measured inhibition for this item: CC(C)(C)NC(=O)C(c1cccnc1)N(C(=O)c1ccccn1)c1ccc(C(C)(C)C)cc1 (stereo not drawn)
> 49%
